experiment: soluble fraction after stress (log2 fold change); higher = more stays soluble; pooled small domains, quantitative proteomics; conditions: stress: 75 degC;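 further: 20 min heating vs room temperature control held 20 min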
In this section we review reported soluble fraction (log2) values for a set of sequences.
Please give the numeric answer without any surrounding text.

Q) Any idea what its soluble fraction (log2) is? The sequence is `HMLSLKAQVYEIIRQKILQQEYALGEKINIDTVADELKISNSPIREALMMLSQDGLIEMVPNNGARVI`
A) -1.88

---
Q) Any idea what its soluble fraction (log2) is? The sequence is `HMQEEELYPRLEEVINQHRGKGEDLIMVLHKAQNLFGYLPRRAQEMVAEGLNVSLNEVYGVITFYNFFST`
A) 0.194

Q) Any idea what its soluble fraction (log2) is? The sequence is `HMLRKTTDLDAIRSVAKDVIDQNPKAVEDYVGGKESAIGFLLGQVMRATKGTADANTVRELLKEILDS`
A) 1.01

Q) Any idea what its soluble fraction (log2) is? The sequence is `HMKHVDLDNNERYIYGIIGSTKIHVDEVVEKSGMETKHVMAILTNLELKEAIKGIPGGFYLR`
A) -2.02
